Experiment: Lipophilicity, log D at pH 7.4 by liquid chromatography
Format: physicochemical
Conditions: buffer
property.measured: logD
// keep it numeric: no unit symbol after the value

{"columns": ["compound", "measured"],
 "data": [
  ["COC(=O)C(c1ccccc1)C1CCCCN1 (stereo not given) [METHYLPHENIDATE]", 0.4]
]}

For `OCCOCCN1CCN(C2=Nc3ccccc3Sc3ccccc32)CC1` , what is its reported logD?
3.4

For `Cc1ccc(-c2nc3ccc(C)cn3c2CC(=O)N(C)C)cc1` , what is its reported logD?
2.3
